Quick record: pIC50, EphB4 (Homo sapiens (Human), UniProt P54760).
pIC50: −log10 of the molar value.

// below: answered compounds
Ask: Notebook entry, EphB4 (Homo sapiens (Human), UniProt P54760) assay: pIC50 of COc1cc2c(Nc3ccc(Cl)c(Cl)c3)ncnc2cc1OCc1nnc(-c2ccc(C)cc2)o1 = ?
Result: > 7.30

Ask: Entry COc1cc2c(Nc3ccc(Cl)c(Cl)c3)ncnc2cc1OCc1noc(C)c1-c1ccccc1 , system EphB4 (Homo sapiens (Human), UniProt P54760): what pIC50 was measured?
Result: > 7.30

Ask: Identify the measured pIC50 of COc1cc2c(Nc3ccc(Br)c(Cl)c3)ncnc2cc1O[C@H]1CO[C@H]2[C@@H]1OC[C@@H]2OC(F)F for EphB4 (Homo sapiens (Human), UniProt P54760).
Result: 6.00 to 7.30

Ask: # get_value(readout= pIC50, system= EphB4 (Homo sapiens (Human), UniProt P54760)) for COc1cc2c(Nc3ccc(Cl)c(Cl)c3)ncnc2cc1OCc1nc([C@@H]2CCCN2C)no1
Result: 6.00 to 7.30

Ask: # returns recorded pIC50 (system: EphB4 (Homo sapiens (Human), UniProt P54760)) for CCN1CCN(c2nc(COc3cc4ncnc(Nc5ccc(Cl)c(Cl)c5)c4cc3OC)cs2)CC1
Sequence (P54760 605-890): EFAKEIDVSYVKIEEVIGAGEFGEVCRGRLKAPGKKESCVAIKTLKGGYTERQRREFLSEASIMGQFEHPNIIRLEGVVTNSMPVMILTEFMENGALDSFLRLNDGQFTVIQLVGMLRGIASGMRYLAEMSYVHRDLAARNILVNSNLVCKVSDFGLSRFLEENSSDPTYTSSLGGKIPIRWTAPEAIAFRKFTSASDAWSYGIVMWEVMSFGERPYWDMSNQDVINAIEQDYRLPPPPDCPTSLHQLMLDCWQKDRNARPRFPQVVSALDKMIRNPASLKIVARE
Result: 4.70 to 6.00

Ask: Notebook entry, EphB4 (Homo sapiens (Human), UniProt P54760) assay: pIC50 of COc1cc2c(Nc3cc(Cl)c(Br)cc3F)ncnc2cc1O[C@@H]1CO[C@@H]2[C@H]1OC[C@H]2F = ?
Result: > 7.30

Ask: Recorded pIC50 for COc1cc2c(Nc3ccc(Cl)c(Cl)c3)ncnc2cc1OCCC1OCCO1 with EphB4 (Homo sapiens (Human), UniProt P54760), please?
Result: 6.00 to 7.30

Ask: Find the measured pIC50: item COc1cc2c(Nc3ccc(Cl)c(Cl)c3)ncnc2cc1OCc1csc([C@@H]2CCCN2)n1 , target or system EphB4 (Homo sapiens (Human), UniProt P54760).
Result: > 7.30

Here is the next item to consider.
Ask: Query for EphB4 (Homo sapiens (Human), UniProt P54760): what pIC50 does the record show for COc1cc2c(Nc3ccc(Cl)c(Cl)c3)ncnc2cc1OCc1csc([C@@H]2CCCN2C)n1 ?
Result: 6.00 to 7.30

###

# System name: EphA2 (Homo sapiens (Human), UniProt P29317)
# Sequence (P29317 598-890): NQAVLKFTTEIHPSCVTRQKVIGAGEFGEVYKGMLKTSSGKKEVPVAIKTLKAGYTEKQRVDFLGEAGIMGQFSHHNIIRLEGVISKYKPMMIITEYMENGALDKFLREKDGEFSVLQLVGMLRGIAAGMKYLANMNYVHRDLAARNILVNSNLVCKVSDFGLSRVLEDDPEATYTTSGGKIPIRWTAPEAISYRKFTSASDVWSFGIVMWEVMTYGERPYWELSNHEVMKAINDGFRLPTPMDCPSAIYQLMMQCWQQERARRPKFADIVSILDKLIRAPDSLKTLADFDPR
# Method description: EphA2 kinase inhibition, luciferase-coupled chemiluminescent assay (LCCA)
# Experimental context: read-out: EphA2 IC50
Observed property: IC50

Here is how some compounds turned out for IC50.
Ask: Lab note: need IC50 with EphA2 (Homo sapiens (Human), UniProt P29317) for entry COc1cc2c(Nc3ccc(Cl)c(Cl)c3)ncnc2cc1OCc1noc(-c2ccccc2)n1 , please look it up.
Result: 50 to 1000 nM

Ask: What reported IC50 corresponds to COc1cc2c(Nc3ccc(Cl)c(Cl)c3)ncnc2cc1OCc1csc(CO)n1 on EphA2 (Homo sapiens (Human), UniProt P29317)?
Result: < 50 nM

Ask: Any idea what IC50 came out for CCN1CCOC(COc2cc3ncnc(Nc4ccc(Cl)c(Cl)c4)c3cc2OC)C1 (centres unmarked) on EphA2 (Homo sapiens (Human), UniProt P29317)?
Result: 50 to 1000 nM

Ask: Form: Entry = COc1cc2c(Nc3ccc(Cl)c(Cl)c3)ncnc2cc1OCc1nc(N2CCN(C(=O)OC(C)(C)C)CC2)no1 | System = EphA2 (Homo sapiens (Human), UniProt P29317) | IC50 = ____
Result: 50 to 1000 nM

Ask: Lab request: please report IC50 under test system EphA2 (Homo sapiens (Human), UniProt P29317) for COc1cc2c(Nc3ccc(Cl)c(Cl)c3)ncnc2cc1OCc1nc(-c2ccncc2)cs1
Result: < 50 nM

---
Ask: # get_value(readout= IC50, system= EphA2 (Homo sapiens (Human), UniProt P29317)) for COc1cc2c(Nc3ccc(Cl)c(Cl)c3)ncnc2cc1OCc1cscn1
Result: < 50 nM

Ask: Requested read-out IC50, target or system EphA2 (Homo sapiens (Human), UniProt P29317), entry COc1cc2c(Nc3ccc(Cl)c(Cl)c3)ncnc2cc1OCc1nc(CN2CCCN(C)CC2)cs1
Result: < 50 nM

Ask: Value wanted: IC50 (EphA2 (Homo sapiens (Human), UniProt P29317)) of entry COc1cc2c(Nc3ccc(Cl)c(Cl)c3)ncnc2cc1OCCC1CCCN1C (centres unmarked)
Result: < 50 nM

###

# System name: EphA2 (Homo sapiens (Human))
# Method description: EphA2 kinase inhibition, luciferase-coupled chemiluminescent assay (LCCA)
# Experimental context: read-out: EphA2 IC50
pIC50: −log10 of the molar value.
Quick reference: pIC50 of the listed items.

Ask: Any idea what its pIC50 is? The compound is COc1cc2c(Nc3ccc(Cl)c(Cl)c3)ncnc2cc1OCc1nc(N2CCOCC2)no1
Result: 6.00 to 7.30

***
Ask: Name the recorded pIC50 for CCN1CCC(c2nc(COc3cc4ncnc(Nc5ccc(Cl)c(Cl)c5)c4cc3OC)cs2)CC1 .
Result: > 7.30

Ask: Query: pIC50; subject: COc1cc2c(Nc3ccc(Cl)c(Cl)c3)ncnc2cc1OCc1nc([C@@H]2CCCN2)no1
Result: > 7.30

Ask: So what's the measured pIC50 for this one? COc1cc2c(Nc3ccc(Cl)c(Cl)c3)ncnc2cc1OCc1csc(C2CCN(C)CC2)n1
Result: 6.00 to 7.30

These data points were gathered from patent US9796704B2.
